# Test protocol: Phase I PK study in the elderly and AD study 12936A pharmacokinetics
# Format: in vivo, human
# Condition label: human, plasma, young healthy subjects; read-out: elimination half life (converted)
Measured quantity: half-life

Q: # lookup: half-life of Fc1ccc2c(CCNCc3cccc(OCC(F)(F)C(F)F)c3)c[nH]c2c1 [Compound I]
Ans: ~12 h

---

# Test protocol: Phase I PK study in the elderly and AD study 12936A pharmacokinetics
# Format: in vivo, human
# Condition label: human, plasma, elderly population; read-out: elimination half life (converted)
Measured quantity: half-life

Q: # lookup: half-life of Fc1ccc2c(CCNCc3cccc(OCC(F)(F)C(F)F)c3)c[nH]c2c1 [Compound I]
Ans: ~19 h
